- System: P94_40
- Assay Procedure: qHTS profiling for inhibitors of Plasmodium falciparum proliferation (AID 504749); also: nearly all actives have a fitted effect of over 60% in size
- Conditions Used: P. falciparum in erythrocytes, SYBR Green DNA, 72 h; series mostly up to 28.7 µM
Inconclusive results are not listed. Calls of active or inactive are those of the source. Calls follow the shape of the dose curve; as a rule, active = well fitted inhibition curve with a large enough effect; inconclusive = small, poorly fitted or top-dose-only effect; inactive = flat fitted curve, though single readings scatter.
Hi! Could you answer with just one of these? TRUE = active, FALSE = inactive

Would you mind telling me which call this test gave C[N+]1([O-])[C@H]2CC[C@H]1CC(OC(=O)[C@@H](CO)c1ccccc1)C2 (stereo not given in full) ? FALSE

Do the same for C[N+]1(C)C2CC[C@H]1CC(OC(=O)[C@@H](CO)c1ccccc1)C2 (stereo not given in full) please FALSE

Next compound up: C[C@@H]1O[C@@H](O[C@H]2C[C@@H](O)[C@@]3(CO)[C@H]4[C@H](O)C[C@]5(C)[C@@H](C6=CC(=O)OC6)CC[C@]5(O)[C@H]4CC[C@@]3(O)C2)[C@@H](O)[C@H](O)[C@H]1O FALSE

// next record C=C[C@@H]1CN2CC[C@H]1C[C@H]2[C@H](O)c1ccnc2ccccc12 TRUE

Thanks! And C[C@@H](Cc1ccc(O)cc1)NC[C@@H](O)c1cc(O)cc(O)c1 ? FALSE

* * *

- Tested Target: Peroxisome proliferator-activated receptor alpha (Homo sapiens) (UniProt Q07869)
- Sequence (Q07869 whole entry, looked up): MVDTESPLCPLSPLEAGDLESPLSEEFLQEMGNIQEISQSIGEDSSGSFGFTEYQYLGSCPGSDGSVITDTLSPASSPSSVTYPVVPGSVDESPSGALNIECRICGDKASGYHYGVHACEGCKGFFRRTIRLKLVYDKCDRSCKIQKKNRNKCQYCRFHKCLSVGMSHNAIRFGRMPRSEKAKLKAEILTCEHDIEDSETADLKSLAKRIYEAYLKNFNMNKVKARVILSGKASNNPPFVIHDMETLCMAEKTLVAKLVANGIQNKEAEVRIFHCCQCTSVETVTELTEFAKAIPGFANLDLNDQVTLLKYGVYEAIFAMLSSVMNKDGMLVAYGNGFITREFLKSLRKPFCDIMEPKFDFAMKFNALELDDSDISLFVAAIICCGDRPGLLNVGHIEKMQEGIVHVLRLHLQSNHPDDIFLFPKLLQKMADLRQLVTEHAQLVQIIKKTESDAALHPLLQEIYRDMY
- Assay Procedure: qHTS assay for small molecule agonists of the peroxisome proliferator-activated receptor alpha (PPARalpha) signaling pathway (AID 651778); also: % of control where 0% means no effect
- Conditions Used: PathHunter PPARalpha complementation, chemiluminescence, 6 h; stronger effect = higher value
- From the text: National Center for Advancing Translational Sciences [NCATS] NIH Chemical Genomics Center [NCGC] U.S. Environmental Protection Agency [EPA] National Institutes of Environmental Health Sciences [NIEHS] National Toxicology Program [NTP] The Peroxisome proliferator-activated receptors (PPARs) are lipid-activated transcription factors of the nuclear receptor superfamily with three distinct subtypes (alpha, garmma and beta/delta). […]
Calls of active or inactive are those of the source. The call rests on the fitted dose curve; in most records, active means well fitted activation curve with a large enough effect; inconclusive means small, poorly fitted or top-dose-only effect; inactive means flat fitted curve, though single readings scatter.
Reported Endpoint: max response

Requested read-out: max response. Entry: N#CCBr -0.274% (inactive)

Continue with Oc1cccc(Cl)c1Cl -2.6% (inactive)

Next up: Nc1ncc([N+](=O)[O-])s1 7.02% (inactive)

What do you have for Nc1c(Br)cc([N+](=O)[O-])cc1[N+](=O)[O-] ? -5.44% (inactive)

Follow-up item: CC(C)C#N 2.25% (inactive)

What about this compound? [N-]=[N+]=[N-] -3.11% (inactive)

Now give it for OCCBr too. 2.96% (inactive)

Follow-up item: C=CC#N -1.02% (inactive)

Next entry: C/C=C/C=O 10% (inactive)

Same question, CCOP(=S)(OCC)Oc1nc(Cl)c(Cl)cc1Cl this time 0.508% (inactive) [middle of 4 runs]

And then N#CCCC#N , what is it? -2.27% (inactive)

How about Cl/C=C\Cl ? -0.887% (inactive)

Quick one: O=NN1CCCCC1 -3.04% (inactive)

Now this one: CCCCOCC1CO1 (stereo not drawn) -2.14% (inactive)

Repeat with CN(C)N=O 0.541% (inactive)

Request: ClCCOCOCCCl -0.0658% (inactive)

Another compound to look at: c1ccc(P(c2ccccc2)c2ccccc2)cc1 -4.42% (inactive)

Same thing, different compound: Cc1ccc([N+](=O)[O-])cc1 -0.114% (inactive)
